Kindly supply the reported IC50 values for the records listed here.
# Assay target: M2 type muscarinic cholinergic receptor (Rattus norvegicus, UniProt P10980)
# Sequence (P10980 1-466): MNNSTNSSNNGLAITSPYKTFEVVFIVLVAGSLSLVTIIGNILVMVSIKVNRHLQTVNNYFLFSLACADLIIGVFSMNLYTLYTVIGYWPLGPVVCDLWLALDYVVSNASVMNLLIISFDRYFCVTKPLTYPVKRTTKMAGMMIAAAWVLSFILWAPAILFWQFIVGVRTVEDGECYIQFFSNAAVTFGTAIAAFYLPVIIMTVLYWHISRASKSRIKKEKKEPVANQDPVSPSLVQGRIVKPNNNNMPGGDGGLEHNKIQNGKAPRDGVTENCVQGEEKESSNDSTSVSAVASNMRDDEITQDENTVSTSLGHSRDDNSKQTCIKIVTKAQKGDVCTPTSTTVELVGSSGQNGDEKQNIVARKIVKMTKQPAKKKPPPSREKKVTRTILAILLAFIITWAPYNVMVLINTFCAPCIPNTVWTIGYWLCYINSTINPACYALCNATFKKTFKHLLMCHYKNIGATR

Exam item: Would you mind telling me what IC50 value was observed for `O=C1N(c2ccc(F)cc2)CCN1[C@H]1CCCN(Cc2ccccc2)C1` ?
Marked response: > 10 µM

Exam item: Would you mind telling me what IC50 value was observed for O=C1N(c2ccc(F)cc2)CCN1C1CCCN(Cc2ccccc2)C1 (racemic) ?
Marked response: 1.09 µM

Exam item: Would you mind telling me what IC50 value was observed for `O=C1N(c2ccc(F)cc2)CCN1[C@@H]1CCCN(Cc2ccccc2)C1` ?
Marked response: 0.5 µM
